# testedOn: human CD3 (on the human T-cell line Jurkat or on human T-cells) (human, UniProt P09693 23-182; P20963 22-164)
# Sequence (chain, as listed by the source, chain 1 of 4): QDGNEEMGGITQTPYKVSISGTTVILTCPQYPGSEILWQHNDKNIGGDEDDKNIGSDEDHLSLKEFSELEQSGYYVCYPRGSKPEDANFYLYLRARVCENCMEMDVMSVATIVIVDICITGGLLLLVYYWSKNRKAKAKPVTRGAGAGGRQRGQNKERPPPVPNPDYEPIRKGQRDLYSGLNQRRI
# Sequence (chain, as listed by the source, chain 2 of 4): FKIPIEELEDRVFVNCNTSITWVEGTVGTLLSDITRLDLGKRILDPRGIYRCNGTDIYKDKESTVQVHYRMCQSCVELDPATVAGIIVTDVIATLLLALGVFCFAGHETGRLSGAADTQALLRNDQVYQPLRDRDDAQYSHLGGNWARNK
# Sequence (P09693 23-182, chain 3 of 4): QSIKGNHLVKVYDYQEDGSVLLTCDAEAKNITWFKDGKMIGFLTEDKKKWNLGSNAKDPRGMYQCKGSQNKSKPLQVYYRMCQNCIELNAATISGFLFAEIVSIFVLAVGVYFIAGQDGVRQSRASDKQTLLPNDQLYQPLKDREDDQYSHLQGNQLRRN
# Sequence (P20963 22-164, chain 4 of 4): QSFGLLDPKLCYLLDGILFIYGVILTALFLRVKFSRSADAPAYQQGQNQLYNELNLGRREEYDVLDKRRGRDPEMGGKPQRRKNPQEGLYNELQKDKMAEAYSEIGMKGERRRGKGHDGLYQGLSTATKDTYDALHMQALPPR
# testMethodNotes: FACS binding; Fig 1A
parameterMeasured: EC50 (µg/mL)
All answers are understood in µg/mL, so give the number only.

Please fill in: EC50 reported for IgG1-CD3-LFLEDA (parental chimeric CD3 antibody with non-activating LFLEDA mutations) (antibody, V domains shown) VH: EVKLLESGGGLVQPKGSLKLSCAASGFTFNTYAMNWVRQAPGKGLEWVARIRSKYNNYATYYADSVKDRFTISRDDSQSILYLQMNNLKTEDTAMYYCVRHGNFGNSYVSWFAYWGQGTLVTVSA VL: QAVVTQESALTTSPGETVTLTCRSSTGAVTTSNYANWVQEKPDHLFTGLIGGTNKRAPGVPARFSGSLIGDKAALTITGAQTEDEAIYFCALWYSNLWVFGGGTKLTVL = 0.08
